- Tested on: efflux pump activity in P. aeruginosa (PA-017, blaNDM)
- assay.protocol: EtBr accumulation, inhibition of efflux pump activity
- Type: cell-based
- condition.info: EtBr fluorescence compared with positive control CCCP
reported.metric: EPi (inhibition of efflux pump activity)

Illustrative cases are given below, each with its answer.
[
  {
    "molecule": "CC(C)(C)CCOc1c(-c2ccc(F)c(F)c2)oc2cc(OCC(=O)O)cc(O)c2c1=O",
    "observed": "↑ ^g"
  },
  {
    "molecule": "O=C(O)COc1cc(O)c2c(=O)c(OCCC3CCCCC3)c(-c3ccc(F)c(F)c3)oc2c1",
    "observed": "↑ ^g"
  },
  {
    "molecule": "CN1CCCC1CCOc1cc(O)c2c(=O)c(OCCC(C)(C)C)c(-c3ccc(F)c(F)c3)oc2c1 (stereo not shown)",
    "observed": "- ^f"
  },
  {
    "molecule": "O=C(O)COc1cc(O)c2c(=O)c(OCCC3CCCC3)c(-c3ccc(F)c(F)c3)oc2c1",
    "observed": "↑ ^g"
  },
  {
    "molecule": "O=C(O)CC(Oc1cc(O)c2c(=O)c(OCCC3CCCCC3)c(-c3ccc(F)c(F)c3)oc2c1)C(=O)O (stereo not shown)",
    "observed": "- ^f"
  }
]

# ---- query molecule ----
response.value for `C[N+](C)(CCNC(=O)COc1cc(O)c2c(=O)c(OCCC3CCCCC3)c(-c3ccc(F)c(F)c3)oc2c1)CC(=O)[O-]` (field: EPi (inhibition of efflux pump activity)) = - ^f
